Source: ChEMBL document CHEMBL1201862

- Measurement Target: Replicative DNA helicase DnaB (Mycobacterium tuberculosis, UniProt P9WMR3)
- Test Description: DnaB intein splicing inhibitors, dose response, biochemical, cell-free fluorescence (AID 449749)
- Assay type: functional
Active and inactive are the calls of the source.
Use one of these outcomes when replying: True for active, False for inactive

Reference set, count: 3
- Molecule: "O=[N+]([O-])c1ccc(N2CCOCC2)c2ccncc12"
  Class Assignment: "False"
- Molecule: "Cc1c(Cl)cccc1NC(=O)CSCc1cc(=O)[nH][nH]1"
  Class Assignment: "False"
- Molecule: "CCSc1cc(C2C(C#N)=C(N)Oc3[nH]nc(C)c32)c(C)o1 (configuration not stated)"
  Class Assignment: "True"

// outcome(item) with item = CCCc1n[nH]c2c1C(c1ccc(OC(=O)N3CCOCC3)cc1)C(C#N)=C(N)O2 (configuration not stated)
True

// outcome(item) with item = COc1ccccc1-c1cc(C(F)(F)F)nc(S(=O)(=O)CCCC(=O)N2CCCCC2C)n1 (configuration not stated)
True

// outcome(item) with item = O=Cc1ccnc(-c2ccc(OC(=O)c3ccco3)cc2)n1
True

// outcome(item) with item = O=S(=O)(Nc1c(O)ccc2ccccc12)c1cccc2ccccc12
True

###

Entries and their IC50
- Measurement Target: Rac GTPase-activating protein 1 (Homo sapiens)
- Sequence (Q9H0H5 whole entry): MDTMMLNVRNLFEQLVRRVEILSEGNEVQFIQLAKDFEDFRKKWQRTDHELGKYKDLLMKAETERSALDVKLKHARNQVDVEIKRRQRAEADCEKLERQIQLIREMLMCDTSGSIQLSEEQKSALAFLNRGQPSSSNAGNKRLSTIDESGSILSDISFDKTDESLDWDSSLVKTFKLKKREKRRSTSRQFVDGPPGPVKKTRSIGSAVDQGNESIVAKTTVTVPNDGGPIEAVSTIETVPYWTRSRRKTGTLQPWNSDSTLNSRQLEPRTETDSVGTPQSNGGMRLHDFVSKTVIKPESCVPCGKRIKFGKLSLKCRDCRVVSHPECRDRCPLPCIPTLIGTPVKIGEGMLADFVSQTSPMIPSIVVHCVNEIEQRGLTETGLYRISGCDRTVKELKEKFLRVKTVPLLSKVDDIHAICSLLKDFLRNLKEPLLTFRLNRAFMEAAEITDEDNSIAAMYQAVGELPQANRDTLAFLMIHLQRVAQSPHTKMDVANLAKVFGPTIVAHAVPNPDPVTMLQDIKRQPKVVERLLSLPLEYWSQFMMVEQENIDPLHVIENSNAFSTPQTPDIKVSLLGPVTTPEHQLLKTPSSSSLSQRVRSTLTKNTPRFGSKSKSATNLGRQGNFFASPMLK
- Test Description: MgcRacGAP GTPase-activating activity inhibitors, confirmation, biochemical, ADP Hunter fluorescence, primary and confirmatory (AID 624330)
- Format: functional
Calls of active or inactive are those of the source.

- Molecule: "CCC(C)n1c(=S)[nH]c2c(sc3ccc([N+](=O)[O-])cc32)c1=O (configuration not stated)"
  IC50: "73.3 µM (active)"
- Molecule: "COc1cc(C)c(N)cc1C(C)C"
  IC50: "113 µM (active)"
- Molecule: "Cc1[nH]c2ccccc2c1/C=N/Nc1nncn1N"
  IC50: "63.7 µM (active)"

In the following, a different molecule is considered.
Noted for COc1ccc(NC2CCCN(C(=O)c3cccc(N(C)C)c3)C2)cc1 (configuration not stated) : its IC50 reads 84.9 µM (active)

###

- Measurement Target: Peroxisome proliferator-activated receptor gamma/Nuclear receptor corepressor 2 (Homo sapiens, UniProt P37231+Q9Y618)
- Sequence (P37231 whole entry): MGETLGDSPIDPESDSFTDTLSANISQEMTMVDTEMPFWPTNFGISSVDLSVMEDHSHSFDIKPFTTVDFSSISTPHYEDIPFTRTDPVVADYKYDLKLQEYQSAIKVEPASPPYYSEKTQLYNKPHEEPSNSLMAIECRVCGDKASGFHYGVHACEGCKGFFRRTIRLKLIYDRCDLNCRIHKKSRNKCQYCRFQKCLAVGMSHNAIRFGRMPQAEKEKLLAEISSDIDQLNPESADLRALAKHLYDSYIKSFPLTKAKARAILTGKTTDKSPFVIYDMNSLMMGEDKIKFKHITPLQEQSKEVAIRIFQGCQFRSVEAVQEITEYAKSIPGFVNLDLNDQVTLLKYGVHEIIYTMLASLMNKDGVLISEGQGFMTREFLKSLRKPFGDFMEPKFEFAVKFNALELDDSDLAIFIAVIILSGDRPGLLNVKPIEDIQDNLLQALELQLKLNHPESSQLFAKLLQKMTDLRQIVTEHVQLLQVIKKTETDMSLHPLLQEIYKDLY
- Sequence (Q9Y618 whole entry): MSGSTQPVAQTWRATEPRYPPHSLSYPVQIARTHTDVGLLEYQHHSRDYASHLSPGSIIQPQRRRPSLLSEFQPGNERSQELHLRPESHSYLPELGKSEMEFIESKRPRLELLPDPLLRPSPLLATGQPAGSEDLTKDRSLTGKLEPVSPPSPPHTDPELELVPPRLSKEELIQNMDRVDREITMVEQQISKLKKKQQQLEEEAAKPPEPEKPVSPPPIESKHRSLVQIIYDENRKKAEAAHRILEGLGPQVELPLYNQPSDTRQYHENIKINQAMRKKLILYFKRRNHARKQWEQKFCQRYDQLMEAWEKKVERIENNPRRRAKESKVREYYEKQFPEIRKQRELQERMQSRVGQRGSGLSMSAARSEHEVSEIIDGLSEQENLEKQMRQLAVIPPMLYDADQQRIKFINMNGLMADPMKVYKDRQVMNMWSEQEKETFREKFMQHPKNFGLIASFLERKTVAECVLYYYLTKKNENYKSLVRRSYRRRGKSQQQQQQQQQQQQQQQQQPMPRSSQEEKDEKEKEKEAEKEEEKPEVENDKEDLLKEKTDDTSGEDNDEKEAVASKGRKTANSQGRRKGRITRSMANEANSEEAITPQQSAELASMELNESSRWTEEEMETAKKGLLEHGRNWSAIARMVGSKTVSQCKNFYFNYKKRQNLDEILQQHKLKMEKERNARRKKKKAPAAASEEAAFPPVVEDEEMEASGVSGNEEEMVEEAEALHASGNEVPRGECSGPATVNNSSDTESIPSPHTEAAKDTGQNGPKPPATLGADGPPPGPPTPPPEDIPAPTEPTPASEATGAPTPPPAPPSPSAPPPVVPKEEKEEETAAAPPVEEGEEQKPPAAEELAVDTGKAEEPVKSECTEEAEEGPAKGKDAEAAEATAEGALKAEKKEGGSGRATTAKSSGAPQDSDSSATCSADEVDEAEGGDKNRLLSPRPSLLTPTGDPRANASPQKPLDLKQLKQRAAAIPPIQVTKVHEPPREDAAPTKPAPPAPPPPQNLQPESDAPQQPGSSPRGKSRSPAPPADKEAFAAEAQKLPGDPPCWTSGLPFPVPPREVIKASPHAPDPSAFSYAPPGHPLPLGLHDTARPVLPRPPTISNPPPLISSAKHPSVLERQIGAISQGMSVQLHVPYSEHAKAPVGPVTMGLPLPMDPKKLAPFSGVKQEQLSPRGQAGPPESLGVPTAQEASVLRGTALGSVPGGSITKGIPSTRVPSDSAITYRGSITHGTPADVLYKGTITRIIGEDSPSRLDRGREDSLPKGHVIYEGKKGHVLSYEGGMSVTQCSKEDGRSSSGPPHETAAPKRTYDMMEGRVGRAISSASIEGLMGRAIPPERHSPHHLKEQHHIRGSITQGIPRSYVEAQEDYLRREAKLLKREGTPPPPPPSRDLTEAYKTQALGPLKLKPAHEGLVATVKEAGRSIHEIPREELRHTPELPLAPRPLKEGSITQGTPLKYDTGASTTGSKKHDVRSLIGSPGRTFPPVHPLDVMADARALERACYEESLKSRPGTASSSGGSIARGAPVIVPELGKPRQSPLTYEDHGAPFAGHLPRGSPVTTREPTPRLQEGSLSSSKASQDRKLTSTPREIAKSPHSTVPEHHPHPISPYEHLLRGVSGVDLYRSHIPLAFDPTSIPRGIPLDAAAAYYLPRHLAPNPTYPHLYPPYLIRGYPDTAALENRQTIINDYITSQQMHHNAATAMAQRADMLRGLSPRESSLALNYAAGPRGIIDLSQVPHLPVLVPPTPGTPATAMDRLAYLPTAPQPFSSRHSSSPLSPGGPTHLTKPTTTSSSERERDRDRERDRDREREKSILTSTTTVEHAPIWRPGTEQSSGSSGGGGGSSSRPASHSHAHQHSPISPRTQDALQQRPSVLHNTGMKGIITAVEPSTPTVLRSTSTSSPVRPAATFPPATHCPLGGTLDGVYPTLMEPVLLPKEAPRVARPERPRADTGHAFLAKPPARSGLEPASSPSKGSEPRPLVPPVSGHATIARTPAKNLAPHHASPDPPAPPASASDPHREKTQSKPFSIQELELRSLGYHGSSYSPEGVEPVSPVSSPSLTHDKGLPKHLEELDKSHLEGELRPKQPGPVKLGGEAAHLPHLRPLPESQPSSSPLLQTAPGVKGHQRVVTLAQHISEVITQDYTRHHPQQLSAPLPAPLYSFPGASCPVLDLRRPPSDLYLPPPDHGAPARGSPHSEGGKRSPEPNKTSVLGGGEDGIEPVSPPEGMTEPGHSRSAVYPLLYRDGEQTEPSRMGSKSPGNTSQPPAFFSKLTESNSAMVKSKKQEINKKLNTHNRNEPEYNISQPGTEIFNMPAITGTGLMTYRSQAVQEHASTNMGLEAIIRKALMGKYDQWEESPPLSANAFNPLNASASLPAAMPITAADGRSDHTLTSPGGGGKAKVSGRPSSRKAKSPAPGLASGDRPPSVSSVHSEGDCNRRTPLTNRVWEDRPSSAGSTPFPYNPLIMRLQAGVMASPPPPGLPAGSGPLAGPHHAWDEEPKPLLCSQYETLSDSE
- Format: functional
Calls of active or inactive are those of the source.
Reported Metric: IC50

Noted for CCC(Sc1nc(O)c(C#N)c(-c2ccccc2)n1)C(=O)Nc1cc(C)on1 (centres undefined) : its IC50 reads 4.41 µM (active)

Noted for COc1cc(Br)c(C(=O)c2nccc3cc(OC)c(OC)cc23)cc1OC : its IC50 reads > 39.8 µM (not active)

Noted for COC(=O)Sc1nnc(-c2ccc(Br)cc2)o1 : its IC50 reads 3.53 µM (active)

Noted for COC(=O)CCCC[C@H]1SC[C@H]2NC(=O)N[C@]21O : its IC50 reads 1.92 µM (active)

###

- Measurement Target: Sentrin-specific protease 8 (Homo sapiens)
- Sequence (Q96LD8 whole entry): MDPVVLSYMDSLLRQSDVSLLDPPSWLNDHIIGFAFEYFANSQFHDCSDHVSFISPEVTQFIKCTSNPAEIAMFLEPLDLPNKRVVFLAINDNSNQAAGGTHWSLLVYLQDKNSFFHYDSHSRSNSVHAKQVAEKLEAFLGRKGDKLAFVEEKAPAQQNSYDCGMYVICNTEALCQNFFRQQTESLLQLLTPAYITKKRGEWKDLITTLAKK
- Test Description: SENP8 protease inhibitors, SAR follow-up, biochemical, luminescence (AID 504501)
- Type: functional
Active and inactive are the calls of the source.
Entries and their IC50

- Structure Smiles: "COc1ccc(/C=N/Nc2nc(NCc3ccccc3)nc(N(C)C)n2)cc1Br"
  IC50: "> 99 µM (inactive)"
- Structure Smiles: "COc1cc(Br)c(C(=O)c2nccc3cc(OC)c(OC)cc23)cc1OC"
  IC50: "35.6 µM (active)"
- Structure Smiles: "C(/C=C/c1ccccc1)=N/Nc1cc(N2CCCC2)nc(N2CCCC2)n1"
  IC50: "43.5 µM (active)"

In the following, a different molecule is considered.
Noted for CCOc1ccc(C(=O)Nc2ccc3ccccc3c2)cc1Br : its IC50 reads > 99 µM (inactive)

###

- System: Streptococcus sp. 'group A'
- Test Description: growth inhibition of control SK(-) GAS strain, dose response, counter-screen for streptokinase expression inhibitor project, luminescence, kanamycin, BacTiterGlo, confirmation (AID 1900)
- Assay type: functional, organism-based
Active and inactive are the calls of the source.
Reported Metric: EC50

Here's what some known entries look like.
- Compound: "Clc1ccc2nc(-c3ccccn3)c(Nc3ccc4c(c3)OCO4)n2c1"
  Endpoint Result: "6.89 µM (active)"
- Compound: "COc1ccc(C(=O)NCC(=O)OCCCOC(=O)CNC(=O)c2ccc(OC)c(OC)c2)cc1OC"
  Endpoint Result: "> 150 µM (not active)"
- Compound: "COc1cc(/C=N\\NC(=O)c2ccc(Cn3cc(Br)c([N+](=O)[O-])n3)o2)cc(OC)c1O"
  Endpoint Result: "2.67 µM (active)"
- Compound: "O=C(CNc1ccccc1)N/N=C/c1c(O)ccc2ccccc12"
  Endpoint Result: "1.02 µM (active)"
- Compound: "C/C(CC(=O)Nc1ccc(Cl)c(C(F)(F)F)c1)=N\\NC(=O)c1cc2ccccc2cc1O"
  Endpoint Result: "1.57 µM (active)"

Noted for O=C(N/N=C/c1cc(Br)cc(Br)c1O)c1ccncc1 : its EC50 reads 0.807 µM (active)

Noted for COc1ccc(O)c(-c2cc(-c3cccc(Br)c3)[nH]n2)c1 : its EC50 reads 6.53 µM (active)

Noted for CC(C)C1Cc2c(sc3[nH]c(=S)n(Cc4ccccc4)c(=O)c23)CO1 (centres undefined) : its EC50 reads 2.15 µM (active)

Noted for Cc1ccc(CN=C(S)NC2CCC(C(C)(C)C)CC2)cc1 (centres undefined) : its EC50 reads 5.46 µM (active)

###

- Measurement Target: UniProt:P10635
- Sequence (P10635 whole entry): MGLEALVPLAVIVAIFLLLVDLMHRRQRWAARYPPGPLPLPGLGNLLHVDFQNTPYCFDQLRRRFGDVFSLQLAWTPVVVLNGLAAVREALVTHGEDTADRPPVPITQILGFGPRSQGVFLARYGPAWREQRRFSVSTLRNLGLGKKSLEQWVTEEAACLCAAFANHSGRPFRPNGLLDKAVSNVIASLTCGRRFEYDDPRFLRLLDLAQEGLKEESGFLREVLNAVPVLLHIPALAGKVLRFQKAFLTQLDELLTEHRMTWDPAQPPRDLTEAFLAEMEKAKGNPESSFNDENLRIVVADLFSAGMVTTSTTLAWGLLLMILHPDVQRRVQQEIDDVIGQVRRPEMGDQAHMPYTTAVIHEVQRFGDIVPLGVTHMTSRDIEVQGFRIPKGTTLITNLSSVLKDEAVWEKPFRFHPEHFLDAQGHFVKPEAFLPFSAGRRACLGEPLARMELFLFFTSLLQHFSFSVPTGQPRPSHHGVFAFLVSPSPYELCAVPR
Reported Metric: AC50

- Molecule: "NC(=Nc1cccc2ccccc12)Nc1nc(O)c2c(n1)CCC2"
  Endpoint Result: "11.2 µM (inconclusive)"
- Molecule: "COc1ccc(C2Nc3ccccc3C(=O)N2Cc2ccco2)cc1COc1ccc([N+](=O)[O-])cc1 (stereo unspecified)"
  Endpoint Result: "3.98 µM (inconclusive)"

In the following, a different molecule is considered.
I looked up CC(C)(C)c1ccc(CN(Cc2ccco2)Cc2nnnn2C2CCCC2)cc1 and its AC50 for UniProt:P10635 was 22.4 µM (inconclusive)

###

- Measurement Target: Cytochrome P450 2C19 (Homo sapiens)
- Sequence (P33261 whole entry): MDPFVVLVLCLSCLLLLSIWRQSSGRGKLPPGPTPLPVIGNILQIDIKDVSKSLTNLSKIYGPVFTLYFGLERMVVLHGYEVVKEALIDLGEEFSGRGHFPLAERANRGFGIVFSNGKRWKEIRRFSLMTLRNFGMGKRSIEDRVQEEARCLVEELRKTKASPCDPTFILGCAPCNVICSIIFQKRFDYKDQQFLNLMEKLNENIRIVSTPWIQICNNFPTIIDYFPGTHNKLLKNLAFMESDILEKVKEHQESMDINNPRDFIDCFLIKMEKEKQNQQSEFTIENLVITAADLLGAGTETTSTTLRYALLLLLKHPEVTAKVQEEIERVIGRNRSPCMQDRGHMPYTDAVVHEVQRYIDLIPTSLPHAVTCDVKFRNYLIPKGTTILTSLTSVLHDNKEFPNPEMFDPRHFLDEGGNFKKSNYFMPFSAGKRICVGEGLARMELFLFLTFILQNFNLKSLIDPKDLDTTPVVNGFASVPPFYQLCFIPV
- Test Description: Cytochrome panel assay with activity outcomes. Panel member name: p450-cyp2c19 Compounds with AC50 equal or less than 10 uM are considered active
- Assay type: functional
- Experimental Conditions: read-out: AC50
Reported Metric: AC50

Here's what some known entries look like.
- Compound: "Cc1ccc(/C=N/n2c(S)nnc2-c2cccs2)cc1"
  Measurement Target: "Cytochrome P450 2C19 (Homo sapiens)"
  AC50: "3.55 µM (inconclusive)"
- Compound: "Oc1ccccc1-c1nnc(-c2ccc(C(F)(F)F)cc2)o1"
  Measurement Target: "Cytochrome P450 2C19 (Homo sapiens)"
  AC50: "39.8 µM (inconclusive)"
- Compound: "CC(C)C(=O)N/N=C/c1ccc(OCc2ccccc2)cc1"
  Measurement Target: "Cytochrome P450 2C19 (Homo sapiens)"
  AC50: "10 µM (inconclusive)"
- Compound: "Cc1ccc(-c2nc(-c3nccc4ccccc34)oc2-c2ccccc2)cc1"
  Measurement Target: "Cytochrome P450 2C19 (Homo sapiens)"
  AC50: "5.01 µM (inconclusive)"
- Compound: "Cc1cc(-c2ccc(Cl)cc2)oc(=O)c1NC(=O)c1ccccc1"
  Measurement Target: "Cytochrome P450 2C19 (Homo sapiens)"
  AC50: "3.55 µM (inconclusive)"
- Compound: "COc1cccc(Cn2c(=O)c(-c3cc(F)cc(F)c3)nc3cnc(N4CCNCC4)nc32)c1"
  Measurement Target: "Cytochrome P450 2C19 (Homo sapiens)"
  AC50: "39.8 µM (inconclusive)"
- Compound: "COCCn1c(=O)c(-c2cccs2)nc2cnc(N3CCNCC3)nc21"
  Measurement Target: "Cytochrome P450 2C19 (Homo sapiens)"
  AC50: "25.1 µM (inconclusive)"
- Compound: "CC(C)C(NS(=O)(=O)c1cccc2nsnc12)C(=O)N1CCc2ccccc2C1 (stereo not given)"
  Measurement Target: "Cytochrome P450 2C19 (Homo sapiens)"
  AC50: "6.31 µM (inconclusive)"

I looked up C[C@]12CC[C@H]3c4ccc(O)cc4CC[C@@H]3[C@H]1CC[C@@H]2OC(=O)CCC1CCCC1 and its AC50 for Cytochrome P450 2C19 (Homo sapiens) was 6.31 µM (inconclusive)

I looked up COc1cccc(NC(=O)COC(=O)c2nc3nccc(C)n3n2)c1 and its AC50 for Cytochrome P450 2C19 (Homo sapiens) was 31.6 µM (inconclusive)

I looked up CCC(C)(C(=O)NC1CCCC1)N(Cc1ccco1)C(=O)c1ccccn1 (stereo not given) and its AC50 for Cytochrome P450 2C19 (Homo sapiens) was 7.94 µM (inconclusive)

I looked up Cc1ccccc1OCCNc1ccc(C(F)(F)F)cc1[N+](=O)[O-] and its AC50 for Cytochrome P450 2C19 (Homo sapiens) was 0.316 µM (inconclusive)

I looked up COCCCN1C(=O)C(O)=C(C(=O)c2ccc(OC(C)C)c(C)c2)C1c1ccncc1 (stereo not given) and its AC50 for Cytochrome P450 2C19 (Homo sapiens) was 11.2 µM (inconclusive)

I looked up C[C@H]1CC[C@H]2C(=O)N[C@H](Cc3ccccc3)C(=O)N2[C@@H]1c1ccccc1 and its AC50 for Cytochrome P450 2C19 (Homo sapiens) was 3.98 µM (inconclusive)

I looked up O=C(N/C(=C/c1ccco1)C(=O)N1CCCCCC1)c1cccs1 and its AC50 for Cytochrome P450 2C19 (Homo sapiens) was 3.98 µM (inconclusive)
